All values here come from ChEMBL document CHEMBL1149601.

Tested on: DNA
testDetails: Binding affinity to calf thymus DNA
Assay type: nucleic-acid assay
runConditions: Bos taurus
Answer N if ΔTm is under 7 °C, and Y if it is 7 °C or more.

{"smilesData": "CN(C)CCN1C(=O)c2cccc3c2c(cc2[nH]c(-c4ccc(N(C)C)cc4)nc23)C1=O", "classification": "Y"}
{"smilesData": "COc1cc(-c2nc3c(cc4c5c(cccc53)C(=O)N(CCN(C)C)C4=O)[nH]2)ccc1O", "classification": "Y"}
{"smilesData": "CN(C)CCN1C(=O)c2cccc3c2c(cc2[nH]c(-c4ccc(O)cc4)nc23)C1=O", "classification": "N"}
{"smilesData": "CN(C)CCN1C(=O)c2cccc3c2c(cc2[nH]c(-c4ccoc4)nc23)C1=O", "classification": "N"}
{"smilesData": "CN(C)CCN1C(=O)c2cccc3c2c(cc2[nH]c(-c4ccccn4)nc23)C1=O", "classification": "N"}

Let us examine a further case.
Incoming: Decide: ΔTm of "CN(C)CCN1C(=O)c2cccc3c2c(cc2[nH]c(-c4cccn4C)nc23)C1=O" >= 7 °C?
Outgoing: N
